Each item that follows carries a reported IC50.
# Test system: IL-2
# ASSAY: PHA-IL2 (cell activation and cytokine analysis)
# Type: cell-based
# CONDITION NOTES: 50% inhibition concentration class

Notebook entry, IL-2 assay: IC50 of Cc1ccc(F)cc1CCC1CCN(C(=O)COc2ccccc2-c2ccc(F)cc2O)CC1 = ?
< 1 µM

Kindly state the measured IC50 obtained for O=C(COc1ccccc1-c1ccc(F)cc1O)N1CCC(CCc2ccncc2)CC1 with IL-2.
1 to 10 µM

Give IC50 (IL-2) of the following molecule: NS(=O)(=O)c1ccc(-c2ccccc2OCC(=O)N2CCC(CCc3ccc4c(c3)OCO4)CC2)cc1
10 to 50 µM

API: value(readout= IC50, system= IL-2, query= COc1ccc(CCC2CCN(C(=O)COc3ccccc3-c3ccc(F)cc3O)CC2)cc1OCCN1CCOCC1 )
1 to 10 µM

Fill in the recorded IC50 for this molecule, with IL-2 as test system: CCCOc1cccc(-c2ccccc2OCC(=O)N2CCC(CCc3ccc4c(c3)OCO4)CC2)c1
1 to 10 µM

# returns recorded IC50 (system: IL-2) for CCCC(Oc1ccccc1-c1ccccc1)C(=O)N1CCC(CCc2ccc3c(c2)OCO3)CC1 (centres unmarked)
10 to 50 µM

# returns recorded IC50 (system: IL-2) for CCCCOc1cccc(-c2ccccc2OCC(=O)N2CCC(CCc3ccc4c(c3)OCO4)CC2)c1
1 to 10 µM

Which measured IC50 belongs to N#Cc1ccc(-c2cc(C#N)ccc2OCC(=O)N2CCC(C#Cc3cnccn3)CC2)cc1 , tested on IL-2?
1 to 10 µM

----------
// values below are reported pIC50
# Test system: IL-2
# ASSAY: PHA-IL2 (cell activation and cytokine analysis)
# Type: cell-based
# CONDITION NOTES: 50% inhibition concentration class
pIC50: −log10 of the molar value.

// worked examples, pIC50 included
COMPOUND | pIC50
O=C(O)c1cncc(-c2ccccc2OCC(=O)N2CCC(CCc3ccc4c(c3)OCO4)CC2)c1 [Compound 196] | 4.30 to 5.00
O=C(COc1ccccc1-c1ccccc1)N1CCC(CCc2ccccc2)CC1 [Compound 118] | 5.00 to 6.00
O=C(COc1ccccc1-c1ccccc1CN1CCOCC1)N1CCC(CCc2ccc3c(c2)OCO3)CC1 [Compound 228] | 5.00 to 6.00

Could you now look at the following compound, please?
I have this compound here, O=C(COc1ccccc1-c1ccc(F)cc1O)N1CCC(CCc2cccc(C(F)(F)F)c2)CC1 [Compound 310] , and I need its recorded pIC50.
> 6.00

----------
# Tested on: IL-2
# ASSAY: PHA-IL2 (cell activation and cytokine analysis)
# Type: cell-based
# CONDITION NOTES: 50% inhibition concentration class
pIC50: −log10 of the molar value.
In this section, each of the compounds is paired with its reported pIC50.

Answered cases to consult:
COMPOUND | pIC50
O=C(COc1cccnc1-c1ccc2[nH]ccc2c1)N1CCC(CCc2ccccc2)CC1 | 5.00 to 6.00
N#Cc1ccc(OCC(=O)N2CCC(CCc3cccc(OCCN4CCOCC4)c3)CC2)c(-c2ccc(F)cc2O)c1 | 5.00 to 6.00
N#Cc1ccc(-c2cc(C(=O)NCc3ccccc3)ccc2OCC(=O)N2CCC(CCc3ccccc3)CC2)cc1 | > 6.00

Item CC1Oc2ccc(CCC3CCN(C(=O)COc4ccccc4-c4ccccc4)CC3)cc2OC1C (centres unmarked) has what recorded pIC50?
> 6.00

Any idea what pIC50 was measured for O=C(COc1ccccc1-c1ccc(F)cc1)N1CCC(CCc2ccc3c(c2)OCCCO3)CC1 ?
> 6.00

What value of measured pIC50 is listed for CC(C)NC(=O)c1ccc(OCC(=O)N2CCC(CCc3ccccc3)CC2)c(-c2ccc(C#N)cc2)c1 ?
> 6.00

Query: pIC50; subject: O=C(COc1ccccc1-c1ccccc1)N1CCC(CCc2ccc3c(c2)OC(F)(F)O3)CC1
5.00 to 6.00

What value of measured pIC50 is listed for O=C(COc1cccnc1-c1ccc(F)cc1O)N1CCC(CCc2ccncc2)CC1 ?
5.00 to 6.00

----------
IC50 listing for selected molecules.
# Tested on: IL-2
# ASSAY: PHA-IL2 (cell activation and cytokine analysis)
# Type: cell-based
# CONDITION NOTES: 50% inhibition concentration class

# example entries with known answers
CHEM SMILES | IC50
O=C(COc1ccccc1-c1ccccc1O)N1CCC(CCc2ccc3c(c2)OCCO3)CC1 | 1 to 10 µM
C=C(C)c1cccc(-c2ccccc2OCC(=O)N2CCC(CCc3ccc4c(c3)OCO4)CC2)c1 | 1 to 10 µM
COc1cccc(CCC2CCN(C(=O)COc3ccc(S(N)(=O)=O)cc3-c3ccc(C#N)cc3)CC2)c1 | 1 to 10 µM

Next:
Entry O=C(COc1ccccc1-c1ccc(F)cc1F)N1CCC(CCc2ccc3c(c2)OCO3)CC1 : reported IC50 = ?
10 to 50 µM

----------
Below, each of the compounds is paired with its reported IC50 value.
# System: IL-2
# ASSAY: PHA-IL2 (cell activation and cytokine analysis)
# Assay type: cell-based
# CONDITION NOTES: 50% inhibition concentration class

Here is how some compounds turned out for IC50.
CHEM SMILES | IC50
O=C(/C=C/c1ccccc1-c1ccc(F)cc1O)N1CCC(CCc2ccc3c(c2)OCO3)CC1 | 1000 to 10000 nM
N#Cc1ccc(-c2ncccc2OCC(=O)N2CCC(CCc3ccccc3)CC2)cn1 | 1000 to 10000 nM
O=C(COc1ccccc1-c1ccnc(N2CCOCC2)c1)N1CCC(CCc2ccc3c(c2)OCO3)CC1 | 1000 to 10000 nM

Next:
Value lookup for IC50; key = CC(C)Oc1cccc(CCC2CCN(C(=O)COc3cccnc3-c3ccc(F)cc3O)CC2)c1
< 1000 nM

----------
# Test system: IL-2
# ASSAY: PHA-IL2 (cell activation and cytokine analysis)
# Type: cell-based
# CONDITION NOTES: 50% inhibition concentration class
# Description: Cells to be tested may include, but are not limited to, a) Jurkat (a transformed human T cell leukemia), b) whole blood isolated from human or rodent sources, c) peripheral blood mononuclear cells (PBMC) freshly isolated from human or rodent whole blood, or d) purified fractions of PBMC (e.g., CD4 T cells). […] Cytokines to be analyzed may include IL-2, IL-4, IL-10, IL-17, IL-22, IFNγ, and/or TNFα. […]
# IC50 listing for each entry below

Past entries and their recorded results:
MOLECULE | IC50
N#Cc1ccc(-c2ccccc2OCC(=O)N2CCC(CCc3ccc4c(c3)OCCCO4)CC2)cc1 [Compound 231] | < 1 µM
O=C(COc1ccccc1-c1ccccc1Cl)N1CCC(CCc2ccc3c(c2)OCO3)CC1 [Compound 165] | < 1 µM
O=C(COc1ccccc1-c1cccc(OCc2ccccc2)c1)N1CCC(CCc2ccc3c(c2)OCO3)CC1 [Compound 217] | 1 to 10 µM
O=C(COc1ccccc1-c1ccc(Cl)cc1Cl)N1CCC(CCc2ccc3c(c2)OCO3)CC1 [Compound 240] | 1 to 10 µM

For the molecule shown here, N#Cc1ccc(OCC(=O)N2CCC(CCc3ccc(OCCN4CCOCC4)cc3)CC2)c(-c2ccc(F)cc2O)c1 [Compound 357] , give the reported IC50.
< 1 µM

Return reported IC50; argument: CC(C)Oc1cccc(CCC2CCN(C(=O)COc3ccccc3-c3ccc(C#N)cc3)CC2)c1 [Compound 403]
< 1 µM

If you can, please state the reported IC50 value of COc1cccc(CCC2CCN(C(=O)COc3ccc(S(=O)(=O)NC(C)C)cc3-c3ccc(F)cc3O)CC2)c1 [Compound 389] .
1 to 10 µM

----------
# System: IL-2
# ASSAY: PHA-IL2 (cell activation and cytokine analysis)
# Type: cell-based
# CONDITION NOTES: 50% inhibition concentration class
EXPERIMENTAL ENDPOINT: IC50

For orientation, consider the following solved cases.
COMPOUND | IC50
O=C(COc1cccnc1-c1ccc(F)nc1)N1CCC(CCc2ccc3c(c2)OCO3)CC1 [Compound 340] | 1 to 10 µM
N#Cc1ccc(-c2ccccc2CCC(=O)N2CCC(CCc3cc(F)cc(F)c3)CC2)cc1 [Compound 226] | 1 to 10 µM
N#Cc1ccc(-c2ccccc2OCC(=O)N2CCC(CCc3ccc(O)cc3)CC2)cc1 [Compound 279] | < 1 µM
Cc1ccc(-c2ccccc2OCC(=O)N2CCC(CCc3ccc4c(c3)OCO4)CC2)cc1 [Compound 202] | 1 to 10 µM
O=C(COc1ccccc1-c1ccc2cc[nH]c2c1)N1CCC(CCc2ccc3c(c2)OCCCO3)CC1 [Compound 343] | 10 to 50 µM

Enter reported IC50 observed with IL-2 for C#CCOc1cccc(CCC2CCN(C(=O)COc3ccc(C#N)cc3-c3ccc(C(=O)c4ccccc4)cc3)CC2)c1 [Compound 418]
< 1 µM

What measured IC50 is associated with CC1CC(CCc2ccccc2)CCN1C(=O)COc1ccccc1-c1ccc(F)cc1O (centres unmarked) [Compound 303] on IL-2?
1 to 10 µM

Lab note: need IC50 with IL-2 for entry O=C1COc2ccc(CCC3CCN(C(=O)COc4ccccc4-c4ccc(F)cc4)CC3)cc2N1 [Compound 258] , please look it up.
1 to 10 µM

Short answer please: IC50, IL-2, entry O=C(COc1ccccc1-c1ccccc1O)N1CCC(CCc2ccc3c(c2)OCCCO3)CC1 [Compound 233]
< 1 µM

Look up IC50 with IL-2 for this compound: O=C(COc1ccccc1-c1ccc(F)cc1)N1CCC(CCc2ccc3c(c2)OCO3)CC1 [Compound 164]
1 to 10 µM

Write down the reported IC50 of O=C(O)c1cccc(-c2ccccc2OCC(=O)N2CCC(CCc3ccc4c(c3)OCO4)CC2)c1 [Compound 158] , test system: IL-2.
10 to 50 µM

Kindly state the measured IC50 obtained for Cc1cc(F)ccc1-c1ccccc1OCC(=O)N1CCC(CCc2ccc3c(c2)OCO3)CC1 [Compound 262] with IL-2.
1 to 10 µM

Short answer please: IC50, IL-2, entry N#Cc1ccc(-c2cnccc2OCC(=O)N2CCC(CCc3ccc4c(c3)OCO4)CC2)cc1 [Compound 327]
10 to 50 µM

These measurements were taken from patent US10899747B2.
